meta.source: PubChem BioAssay AID1963828

Tested on: 991263-137-R1-J2-PDC complex spheroid viability
Assay: Anticancer human tumor 991263-137-R1-J2-PDC patient-derived colon adenocarcinoma cell line growth inhibition [POLQ]
Conditions: second compound 0.1 µM; first compound 0.316 µM; stronger effect = lower value

compound	viability, T/C (%)
CCc1c2c(nc3ccc(O)cc13)-c1cc3c(c(=O)n1C2)COC(=O)[C@]3(O)CC + Nc1ccc(C#CCN(C(=O)Cc2ncc(C(F)(F)F)cc2C(F)(F)F)c2ccc(F)cc2)nn1	42.8
CCc1c2c(nc3ccc(O)cc13)-c1cc3c(c(=O)n1C2)COC(=O)[C@]3(O)CC + COC1C(OC(N)=O)C(O)C(Oc2ccc3c(O)c(NC(=O)c4ccc(O)c(CC=C(C)C)c4)c(=O)oc3c2C)OC1(C)C	29.1
CC1COCCN1c1cc(-c2ccnn2C)c2ccnc(-c3ccn[nH]3)c2n1 (stereo unspecified) + COC1C(OC(N)=O)C(O)C(Oc2ccc3c(O)c(NC(=O)c4ccc(O)c(CC=C(C)C)c4)c(=O)oc3c2C)OC1(C)C	76
CNCc1ccc(-c2[nH]c3cc(F)cc4c3c2CCNC4=O)cc1 + Nc1ccc(C#CCN(C(=O)Cc2ncc(C(F)(F)F)cc2C(F)(F)F)c2ccc(F)cc2)nn1	114
C#Cc1c(F)ccc2cc(O)cc(-c3ncc4c(N5CC6CCC(C5)N6)nc(OCC56CCCN5CC(F)C6)nc4c3F)c12 (stereo unspecified) + Nc1ccc(C#CCN(C(=O)Cc2ncc(C(F)(F)F)cc2C(F)(F)F)c2ccc(F)cc2)nn1	96.5
CNCc1ccc(-c2[nH]c3cc(F)cc4c3c2CCNC4=O)cc1 + Cc1cccc(N(C)C(=O)C2C(O)CCN2c2nc(C)cc(C(F)(F)F)c2C#N)c1	101
C=CC(=O)N1CCN(c2nc(=O)n(-c3c(C)ccnc3C(C)C)c3nc(-c4c(O)cccc4F)c(F)cc23)C(C)C1 (stereo unspecified) + Cc1cccc(N(C)C(=O)C2C(O)CCN2c2nc(C)cc(C(F)(F)F)c2C#N)c1	102
CCc1cc2c(N3CCc4c(cc(Cn5ccnc5)cc4-c4cn(C)nc4C(F)(F)F)C3=O)cc(C)nc2c(OC)n1 + COC1C(OC(N)=O)C(O)C(Oc2ccc3c(O)c(NC(=O)c4ccc(O)c(CC=C(C)C)c4)c(=O)oc3c2C)OC1(C)C	102
COc1cc2cc(C(=O)CCC(=O)O)sc2cc1OC + COC1C(OC(N)=O)C(O)C(Oc2ccc3c(O)c(NC(=O)c4ccc(O)c(CC=C(C)C)c4)c(=O)oc3c2C)OC1(C)C	99.7
CNCc1ccc(-c2[nH]c3cc(F)cc4c3c2CCNC4=O)cc1 + COC1C(OC(N)=O)C(O)C(Oc2ccc3c(O)c(NC(=O)c4ccc(O)c(CC=C(C)C)c4)c(=O)oc3c2C)OC1(C)C	109
COc1cc(C2c3cc4c(cc3C(OC3OC5COC(C)OC5C(O)C3O)C3COC(=O)C23)OCO4)cc(OC)c1O (stereo unspecified) + Nc1ccc(C#CCN(C(=O)Cc2ncc(C(F)(F)F)cc2C(F)(F)F)c2ccc(F)cc2)nn1	102

* * *

Reported pIC50 by item:
System: 991263-137-R1-J2-PDC complex spheroid viability
Assay: Anticancer human tumor 991263-137-R1-J2-PDC cell line growth inhibition [POLQ];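 further: spheroids exposed to compounds for 7 days before readout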
Settings: curve of first compound; second compound 10 µM
pIC50: −log10 of the molar value.
quantity-kind: pIC50

compound	quantity-kind	assay-value
C#Cc1c(F)ccc2cc(O)cc(-c3ncc4c(N5CC6CCC(C5)N6)nc(OCC56CCCN5CC(F)C6)nc4c3F)c12 (centres undefined) + Cc1cccc(N(C)C(=O)C2C(O)CCN2c2nc(C)cc(C(F)(F)F)c2C#N)c1	pIC50	< 5.00
CC1COCCN1c1cc(C2(S(C)(=N)=O)CC2)nc(-c2ccnc3[nH]ccc23)n1 (centres undefined) + COC1C(OC(N)=O)C(O)C(Oc2ccc3c(O)c(NC(=O)c4ccc(O)c(CC=C(C)C)c4)c(=O)oc3c2C)OC1(C)C	pIC50	< 5.00
O=C(Nc1ccc(O)c(NS(=O)(=O)c2ccc(F)cc2)c1)c1ccc(-c2ccccc2)cc1 + COC1C(OC(N)=O)C(O)C(Oc2ccc3c(O)c(NC(=O)c4ccc(O)c(CC=C(C)C)c4)c(=O)oc3c2C)OC1(C)C	pIC50	< 5.00
CC[C@@]1(O)C(=O)OCc2c1cc1n(c2=O)Cc2cc3c(CN(C)C)c(O)ccc3nc2-1 + COC1C(OC(N)=O)C(O)C(Oc2ccc3c(O)c(NC(=O)c4ccc(O)c(CC=C(C)C)c4)c(=O)oc3c2C)OC1(C)C	pIC50	< 7.00

* * *

System: 991263-137-R1-J2-PDC complex spheroid viability
Experiment: Anticancer human tumor 991263-137-R1-J2-PDC cell line growth inhibition [POLQ];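 further: spheroids exposed to compounds for 7 days before readout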
Details: curve of first compound; second compound 1 µM
pIC50: −log10 of the molar value.

compound	modifier-sign	pIC50
CC1COCCN1c1cc(-c2ccnn2C)c2ccnc(-c3ccn[nH]3)c2n1 (stereo not given) + Nc1ccc(C#CCN(C(=O)Cc2ncc(C(F)(F)F)cc2C(F)(F)F)c2ccc(F)cc2)nn1	=	5.85
COc1cc2cc(C(=O)CCC(=O)O)sc2cc1OC + COC1C(OC(N)=O)C(O)C(Oc2ccc3c(O)c(NC(=O)c4ccc(O)c(CC=C(C)C)c4)c(=O)oc3c2C)OC1(C)C	<	5.00
COc1cccc(OCCCN)c1-c1cc(Nc2cnc(C#N)cn2)n[nH]1 + Nc1ccc(C#CCN(C(=O)Cc2ncc(C(F)(F)F)cc2C(F)(F)F)c2ccc(F)cc2)nn1	=	6.14
COc1cc2cc(C(=O)CCC(=O)O)sc2cc1OC + Cc1cccc(N(C)C(=O)C2C(O)CCN2c2nc(C)cc(C(F)(F)F)c2C#N)c1	<	5.00
CCc1cc2c(N3CCc4c(cc(Cn5ccnc5)cc4-c4cn(C)nc4C(F)(F)F)C3=O)ccnc2c(OC)n1 + COC1C(OC(N)=O)C(O)C(Oc2ccc3c(O)c(NC(=O)c4ccc(O)c(CC=C(C)C)c4)c(=O)oc3c2C)OC1(C)C	<	5.00

* * *

Tested on: 991263-137-R1-J2-PDC complex spheroid viability
Assay: Anticancer human tumor 991263-137-R1-J2-PDC cell line growth inhibition [POLQ];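 further: spheroids exposed to compounds for 7 days before readout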;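 on viability, T/C: 100% = DMSO vehicle control viability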
Conditions: second compound 0.1 µM; first compound 0.000316 µM; stronger effect = lower value

compound	viability, T/C
CC[C@@]1(O)C(=O)OCc2c1cc1n(c2=O)Cc2cc3c(CN(C)C)c(O)ccc3nc2-1 + COC1C(OC(N)=O)C(O)C(Oc2ccc3c(O)c(NC(=O)c4ccc(O)c(CC=C(C)C)c4)c(=O)oc3c2C)OC1(C)C	105%
CC[C@@]1(O)C(=O)OCc2c1cc1n(c2=O)Cc2cc3c(CN(C)C)c(O)ccc3nc2-1 + Nc1ccc(C#CCN(C(=O)Cc2ncc(C(F)(F)F)cc2C(F)(F)F)c2ccc(F)cc2)nn1	111%
Cn1ncnc1[C@H]1c2n[nH]c(=O)c3cc(F)cc(c23)N[C@@H]1c1ccc(F)cc1 + Cc1cccc(N(C)C(=O)C2C(O)CCN2c2nc(C)cc(C(F)(F)F)c2C#N)c1	105%

* * *

Reported viability, T/C by item:
Tested on: 991263-137-R1-J2-PDC complex spheroid viability
Assay: Anticancer human tumor 991263-137-R1-J2-PDC cell line growth inhibition [POLQ];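 further: spheroids exposed to compounds for 7 days before readout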;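 on viability, T/C: 100% = DMSO vehicle control viability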
Details: second compound 1 µM; first compound 0.0316 µM; stronger effect = lower value

molecule	viability, T/C / %
Cn1ncnc1[C@H]1c2n[nH]c(=O)c3cc(F)cc(c23)N[C@@H]1c1ccc(F)cc1 + COC1C(OC(N)=O)C(O)C(Oc2ccc3c(O)c(NC(=O)c4ccc(O)c(CC=C(C)C)c4)c(=O)oc3c2C)OC1(C)C	71.5
CCc1cc2c(N3CCc4c(cc(Cn5ccnc5)cc4-c4cn(C)nc4C(F)(F)F)C3=O)ccnc2c(OC)n1 + Cc1cccc(N(C)C(=O)C2C(O)CCN2c2nc(C)cc(C(F)(F)F)c2C#N)c1	105
CC[C@@]1(O)C(=O)OCc2c1cc1n(c2=O)Cc2cc3c(CN(C)C)c(O)ccc3nc2-1 + COC1C(OC(N)=O)C(O)C(Oc2ccc3c(O)c(NC(=O)c4ccc(O)c(CC=C(C)C)c4)c(=O)oc3c2C)OC1(C)C	75.7
CC(C)n1c(=O)n(C)c2cnc3cc(F)c(-c4ccc(OCCCN5CCCCC5)nc4)cc3c21 + COC1C(OC(N)=O)C(O)C(Oc2ccc3c(O)c(NC(=O)c4ccc(O)c(CC=C(C)C)c4)c(=O)oc3c2C)OC1(C)C	109
CCc1cc2c(N3CCc4c(cc(Cn5ccnc5)cc4-c4cn(C)nc4C(F)(F)F)C3=O)cc(C)nc2c(OC)n1 + Nc1ccc(C#CCN(C(=O)Cc2ncc(C(F)(F)F)cc2C(F)(F)F)c2ccc(F)cc2)nn1	107
C#Cc1c(F)ccc2cc(O)cc(-c3ncc4c(N5CC6CCC(C5)N6)nc(OCC56CCCN5CC(F)C6)nc4c3F)c12 (stereo unspecified) + COC1C(OC(N)=O)C(O)C(Oc2ccc3c(O)c(NC(=O)c4ccc(O)c(CC=C(C)C)c4)c(=O)oc3c2C)OC1(C)C	95.4
CC1COCCN1c1cc(-c2ccnn2C)c2ccnc(-c3ccn[nH]3)c2n1 (stereo unspecified) + Cc1cccc(N(C)C(=O)C2C(O)CCN2c2nc(C)cc(C(F)(F)F)c2C#N)c1	90.3
CCc1c2c(nc3ccc(O)cc13)-c1cc3c(c(=O)n1C2)COC(=O)[C@]3(O)CC + COC1C(OC(N)=O)C(O)C(Oc2ccc3c(O)c(NC(=O)c4ccc(O)c(CC=C(C)C)c4)c(=O)oc3c2C)OC1(C)C	62.2
O=c1[nH]cc(F)c(=O)[nH]1 + Nc1ccc(C#CCN(C(=O)Cc2ncc(C(F)(F)F)cc2C(F)(F)F)c2ccc(F)cc2)nn1	117
COc1cc2cc(C(=O)CCC(=O)O)sc2cc1OC + Cc1cccc(N(C)C(=O)C2C(O)CCN2c2nc(C)cc(C(F)(F)F)c2C#N)c1	91.2
CCCS(=O)(=O)Nc1ccc(F)c(C(=O)c2c[nH]c3ncc(-c4ccc(Cl)cc4)cc23)c1F + Cc1cccc(N(C)C(=O)C2C(O)CCN2c2nc(C)cc(C(F)(F)F)c2C#N)c1	96.8
